Origin of measurements: patent US7989464B2

Below, each of the compounds is paired with its reported IC50 value.
- test.system: hmGluR1 receptor (Homo sapiens)
- Construct: expressed in transfected cells
- experimental.protocol: IC50 determination: intracellular calcium mobilization (FLIPR) upon Quisqualate stimulation in CHO cells stably expressing hmGluR1
- Format: cell-based
- test.settings: against Quisqualate 1 μM (EC80), class symbols, read-out: mGIuR 1 IC50

>>> experimental_value("CSc1ccc(-n2cnc3c4c(N(C)C)ccnc4n(C)c3c2=O)cc1 [134C]")
"> 1000 nM"
>>> experimental_value("CN(C)c1ccnc2c1c1ncn(-c3ccc(OC(F)F)cc3)c(=O)c1n2C [134D]")
"> 1000 nM"
>>> experimental_value("COc1cc(OC)cc(-n2cnc3c(sc4nccc(N(C)C)c43)c2=O)c1")
"< 50 nM"
>>> experimental_value("CN(C)c1ccnc2sc3c(=O)n(-c4ccc5[nH]nnc5c4)cnc3c12")
"150 to 1000 nM"

For the compound shown here, CN(C)c1ccnc2sc3c(=O)n(-c4ccccc4Cl)cnc3c12 , give the reported IC50.
50 to 150 nM

For the compound shown here, Cc1cc(N(C)C)c2c(n1)sc1c(=O)n(-c3ccc4ncsc4c3)cnc12 , give the reported IC50.
50 to 150 nM

For the compound shown here, Cc1ccc(-n2cnc3c(sc4nccc(N(C)C)c43)c2=O)cc1 , give the reported IC50.
< 50 nM

For the compound shown here, Cc1nc2ccc(-n3cnc4c(sc5nccc(N(C)C)c54)c3=O)cc2[nH]1 , give the reported IC50.
> 1000 nM

For the compound shown here, CCN(C)c1ncnc2sc3c(=O)n(-c4ccc(OC(F)(F)F)cc4)cnc3c12 [95R] , give the reported IC50.
< 50 nM

For the compound shown here, Cc1cc(N(C)C)c2c(n1)sc1c(=O)n(C3CCCCC3)cnc12 , give the reported IC50.
< 50 nM

---

- test.system: hmGluR1 receptor (Homo sapiens, UniProt Q13255)
- Construct: expressed in transfected cells
- Sequence (Q13255 19-1194): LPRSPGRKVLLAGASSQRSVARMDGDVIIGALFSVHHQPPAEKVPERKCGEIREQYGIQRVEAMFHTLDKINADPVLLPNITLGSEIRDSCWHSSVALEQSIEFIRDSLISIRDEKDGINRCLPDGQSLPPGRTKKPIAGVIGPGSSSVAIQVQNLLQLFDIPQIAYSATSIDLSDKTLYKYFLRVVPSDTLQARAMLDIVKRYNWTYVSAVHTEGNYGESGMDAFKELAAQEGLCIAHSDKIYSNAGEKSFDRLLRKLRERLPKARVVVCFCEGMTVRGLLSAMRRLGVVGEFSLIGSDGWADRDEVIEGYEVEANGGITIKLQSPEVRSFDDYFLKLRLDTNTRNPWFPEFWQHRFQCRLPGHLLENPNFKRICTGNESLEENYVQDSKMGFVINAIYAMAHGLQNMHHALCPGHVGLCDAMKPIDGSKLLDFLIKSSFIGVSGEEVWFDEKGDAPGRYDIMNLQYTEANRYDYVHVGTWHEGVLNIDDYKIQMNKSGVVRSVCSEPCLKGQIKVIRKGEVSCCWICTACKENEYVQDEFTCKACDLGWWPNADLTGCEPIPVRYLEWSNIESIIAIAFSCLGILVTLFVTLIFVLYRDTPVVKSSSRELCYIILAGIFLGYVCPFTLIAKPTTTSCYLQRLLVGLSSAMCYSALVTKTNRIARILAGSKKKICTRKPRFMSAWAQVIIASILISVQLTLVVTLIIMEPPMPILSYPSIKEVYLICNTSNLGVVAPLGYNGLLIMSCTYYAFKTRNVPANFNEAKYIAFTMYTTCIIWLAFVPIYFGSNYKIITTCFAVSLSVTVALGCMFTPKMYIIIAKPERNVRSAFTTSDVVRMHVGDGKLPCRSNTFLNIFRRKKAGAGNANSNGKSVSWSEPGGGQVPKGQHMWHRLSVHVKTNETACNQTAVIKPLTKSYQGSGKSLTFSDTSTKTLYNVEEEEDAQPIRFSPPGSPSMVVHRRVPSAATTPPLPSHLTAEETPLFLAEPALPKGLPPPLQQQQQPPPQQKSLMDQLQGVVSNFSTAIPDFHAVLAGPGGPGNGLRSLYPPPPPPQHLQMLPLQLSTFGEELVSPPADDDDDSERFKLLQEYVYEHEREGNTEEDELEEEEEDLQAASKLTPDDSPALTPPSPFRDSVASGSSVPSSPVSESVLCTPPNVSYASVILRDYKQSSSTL
- experimental.protocol: IC50 determination: intracellular calcium mobilization (FLIPR) upon Quisqualate stimulation in CHO cells stably expressing hmGluR1
- Format: cell-based
- test.settings: against Quisqualate 1 μM (EC80), class symbols, read-out: mGIuR 1 IC50
Below, each of the molecules is paired with its reported IC50 value.

Reference set, count: 4
>>> experimental_value("C#CCOc1ccnc2sc3c(=O)n(-c4ccc(C)cc4)cnc3c12 [66A]")
"< 0.05 µM"
>>> experimental_value("CN(C)c1ccnc2sc3c(=O)n(CC4CCCO4)cnc3c12 (stereo not drawn) [15F]")
"0.15 to 1 µM"
>>> experimental_value("CN(C)c1ccnc2sc3c(=O)n(-c4ccc(I)cc4)cnc3c12")
"> 1 µM"
>>> experimental_value("CN(C)c1ccnc2sc3c(=O)n(NC(=O)C4CC4)c(C4CC4)nc3c12 [65C]")
"> 1 µM"

For the molecule shown here, COc1cc(-n2cnc3c(sc4nccc(N(C)C)c43)c2=O)cc(OC)c1OC , give the reported IC50.
> 1 µM

For the molecule shown here, O=c1c2sc3nccc(N4CC[C@@H](O)C4)c3c2ncn1C1CCCCC1 [28M] , give the reported IC50.
> 1 µM

---

Below, each of the molecules is paired with its reported IC50 value.
- test.system: hmGluR1 receptor (Homo sapiens, UniProt Q13255)
- Construct: expressed in transfected cells
- experimental.protocol: IC50 determination: intracellular calcium mobilization (FLIPR) upon Quisqualate stimulation in CHO cells stably expressing hmGluR1
- Assay type: cell-based
- test.settings: against Quisqualate 1 μM (EC80), class symbols, read-out: mGIuR 1 IC50

Reference set, count: 5
>>> experimental_value("COc1ccc(-n2cnc3c(sc4nccc(N(C)C)c43)c2=O)cn1")
"< 50 nM"
>>> experimental_value("CC(c1ccccc1)n1cnc2c(sc3nccc(N(C)C)c32)c1=O (stereo not drawn)")
"50 to 150 nM"
>>> experimental_value("CN(C)c1ccnc2sc3c(=O)n(Cc4ccc(Cl)cc4)cnc3c12")
"> 1000 nM"
>>> experimental_value("CN(C)c1ccnc2sc3c(=O)n(Cc4ccco4)cnc3c12 [15H]")
"150 to 1000 nM"
>>> experimental_value("CC1CCCC(C)N1n1cnc2c(sc3nccc(N(C)C)c32)c1=O (stereo not drawn) [60F]")
"50 to 150 nM"

For the molecule shown here, CNc1ccnc2sc3c(=O)n(-c4ccc(O)cc4)cnc3c12 , give the reported IC50.
< 50 nM

For the molecule shown here, CN(C)c1ccnc2sc3c(=O)n(-c4cccs4)cnc3c12 [15AB] , give the reported IC50.
< 50 nM

For the molecule shown here, CCN(C)c1ccnc2sc3c(=O)n(-c4ccc(C)cc4)c(C)nc3c12 [113I] , give the reported IC50.
< 50 nM

For the molecule shown here, CN(C)c1ccnc2sc3c(=O)n(-c4ccc(CO)cc4)cnc3c12 , give the reported IC50.
< 50 nM

For the molecule shown here, CN(C)c1ccnc2sc3c(=O)n(-c4ccc5nsnc5c4)cnc3c12 , give the reported IC50.
< 50 nM

For the molecule shown here, CCNc1ncnc2sc3c(=O)n(-c4ccc(C)nc4)cnc3c12 [95AB] , give the reported IC50.
150 to 1000 nM

---

- test.system: hmGluR1 receptor (Homo sapiens)
- Construct: expressed in transfected cells
- experimental.protocol: IC50 determination: intracellular calcium mobilization (FLIPR) upon Quisqualate stimulation in CHO cells stably expressing hmGluR1
- Assay type: cell-based
- test.settings: against Quisqualate 1 μM (EC80), class symbols, read-out: mGIuR 1 IC50
pIC50: −log10 of the molar value.
Below, each of the molecules is paired with its reported pIC50 value.

Reference set, count: 4
>>> experimental_value("CN(C)c1ccnc2sc3c(=O)n(C4CCC(C(C)(C)C)CC4)cnc3c12 (centres unmarked) [15M]")
"< 6.00"
>>> experimental_value("CN(C)c1ncnc2sc3c(=O)n(-c4ccc5c(c4)CCO5)cnc3c12 [95E]")
"> 7.30"
>>> experimental_value("CCN(CC)c1ccnc2sc3c(=O)n(C4CCCCC4)cnc3c12 [28J]")
"6.00 to 6.82"
>>> experimental_value("CN(C)c1ccnc2sc3c(=O)n(-c4ccc5c(c4)CCC5)cnc3c12")
"> 7.30"

Let's switch to this molecule now.
For the molecule shown here, C=CCOc1ccnc2sc3c(=O)n(-c4ccc(C)cc4)cnc3c12 [66D] , give the reported pIC50.
> 7.30

---

Below, each of the molecules is paired with its reported pIC50 value.
- test.system: hmGluR1 receptor (Homo sapiens, UniProt Q13255)
- Construct: expressed in transfected cells
- experimental.protocol: IC50 determination: intracellular calcium mobilization (FLIPR) upon Quisqualate stimulation in CHO cells stably expressing hmGluR1
- Assay type: cell-based
- test.settings: against Quisqualate 1 μM (EC80), FLIPR calcium mobilization, read-out: IC50 Class
pIC50: −log10 of the molar value.

>>> experimental_value("C=CCNc1nncc2sc3c(=O)n(-c4ccc(C)cc4)cnc3c12 [167C]")
"6.00 to 6.82"
>>> experimental_value("C[C@@H](O)CNc1ccnc2sc3c(=O)n(-c4ccc(Br)cc4)cnc3c12 [28HB]")
"> 7.30"
>>> experimental_value("C=CCc1cnc2sc3c(=O)n(-c4ccc(Cl)cc4)cnc3c2c1N [178B]")
"> 7.30"
>>> experimental_value("COc1ccc(-n2cnc3c(sc4nccc(NCCO)c43)c2=O)cc1 [28DB]")
"> 7.30"
>>> experimental_value("Cc1ccc(-n2cnc3c(sc4nc(C)nc(N)c43)c2=O)cc1 [95ET]")
"> 7.30"

Write down the reported pIC50 of CN(C)c1cccc2sc3c(=O)n(-c4ccccc4F)cnc3c12 [103L] , test system: hmGluR1 receptor (Homo sapiens, UniProt Q13255).
< 6.00

Write down the reported pIC50 of CCNc1ccnc2sc3c(=O)n(-c4ccc(Cl)cc4)cnc3c12 [28HZ] , test system: hmGluR1 receptor (Homo sapiens, UniProt Q13255).
> 7.30

Write down the reported pIC50 of COc1ccc(Nc2ncnc3sc4c(=O)n(-c5ccccc5)cnc4c23)cc1 [95GI] , test system: hmGluR1 receptor (Homo sapiens, UniProt Q13255).
6.00 to 6.82

Write down the reported pIC50 of C#CCOc1nncc2sc3c(=O)n(-c4ccc(C)cc4)cnc3c12 [167E] , test system: hmGluR1 receptor (Homo sapiens, UniProt Q13255).
< 6.00

Write down the reported pIC50 of CNc1ncnc2sc3c(=O)n(-c4ccc(OC)cc4C)cnc3c12 [95BH] , test system: hmGluR1 receptor (Homo sapiens, UniProt Q13255).
> 7.30

---

- test.system: hmGluR1 receptor (Homo sapiens, UniProt Q13255)
- Construct: expressed in transfected cells
- experimental.protocol: IC50 determination: intracellular calcium mobilization (FLIPR) upon Quisqualate stimulation in CHO cells stably expressing hmGluR1
- Assay type: cell-based
- test.settings: against Quisqualate 1 μM (EC80), class symbols, read-out: mGIuR 1 IC50
Below, each of the molecules is paired with its reported IC50 value.

>>> experimental_value("CN(C)c1ccnc2sc3c(=O)n(C4CCNCC4)cnc3c12 [15G]")
"> 1000 nM"

For the molecule shown here, O=c1c2sc3nccc(Cl)c3c2ncn1-c1ccccc1 , give the reported IC50.
150 to 1000 nM

For the molecule shown here, CCN(C)c1ccnc2sc3c(=O)n(C4CCCCC4)cnc3c12 [28Y] , give the reported IC50.
< 50 nM

For the molecule shown here, Cc1ccc(-n2cnc3c(sc4nccc(N(C)C)c43)c2=O)cn1 , give the reported IC50.
< 50 nM

For the molecule shown here, COc1ccc(-n2c(C(F)(F)F)nc3c(sc4nccc(N(C)C)c43)c2=O)cc1 [117B] , give the reported IC50.
150 to 1000 nM

For the molecule shown here, CCNc1c(C#N)cnc2sc3c(=O)n(C4CCCCC4)cnc3c12 , give the reported IC50.
150 to 1000 nM

For the molecule shown here, O=c1c2sc3nccc(NC4CCCCC4)c3c2ncn1-c1ccccc1 [28D] , give the reported IC50.
> 1000 nM

For the molecule shown here, O=c1c2sc3nccc(O)c3c2ncn1C1CCCCC1 [26A] , give the reported IC50.
> 1000 nM

For the molecule shown here, CCN(CC)c1ccnc2sc3c(=O)n(-c4ccc(OC)cc4)cnc3c12 [28AQ] , give the reported IC50.
50 to 150 nM

For the molecule shown here, CN(C)c1ccnc2sc3c(=O)n(-c4ccc5c(c4)OCO5)cnc3c12 , give the reported IC50.
< 50 nM
